test.details: Intrinsic clearance in mouse liver microsomes at 2 uM assessed per mg of protein
Assay type: ADME, Microsome
experimental.setup: read-out: CLH
Condition met means recorded microsomal CLint at 2 µM is 40 µL/min/mg or above; Condition not met means it is below 40 µL/min/mg.

The examples below pair each entry with its known result.
molecule | answer.label
Cc1nc(N)sc1-c1c2c(=O)n(C)c(=O)n(CC3CC3)c2nn1Cc1ccnc2ccc(Cl)cc12 | Condition met
Cn1cc(C#N)cc1-c1c2c(=O)n(CCn3ccnn3)c(=O)n(CC3CC3)c2nn1Cc1ccnc2ccc(Cl)cc12 | Condition met

Field: next molecule
Exam item: Entry `Cn1cc(C#N)cc1-c1c2c(=O)n(CC#CCn3cccn3)c(=O)n(CC3CC3)c2nn1Cc1ccnc2ccc(Cl)cc12` : is its microsomal CLint at 2 µM no less than 40 µL/min/mg?
Marked response: Condition met
